This document collects Ki values reported for D(4) dopamine receptor (Homo sapiens, UniProt P21917).

| Mol Smiles | Ki / nM |
| --- | --- |
| C[C@H]1Oc2c(cccc2N2CCN(CCCc3c[nH]c4ccc(F)cc34)CC2)NC1=O | 1.58 |
| O=C1c2ccccc2C(=O)N1CCCCN1CC=C(c2c[nH]c3ccc(F)cc23)CC1 | 79.4 |

###

# System: 5-hydroxytryptamine receptor 2C (Homo sapiens)
# Sequence (P28335 whole entry): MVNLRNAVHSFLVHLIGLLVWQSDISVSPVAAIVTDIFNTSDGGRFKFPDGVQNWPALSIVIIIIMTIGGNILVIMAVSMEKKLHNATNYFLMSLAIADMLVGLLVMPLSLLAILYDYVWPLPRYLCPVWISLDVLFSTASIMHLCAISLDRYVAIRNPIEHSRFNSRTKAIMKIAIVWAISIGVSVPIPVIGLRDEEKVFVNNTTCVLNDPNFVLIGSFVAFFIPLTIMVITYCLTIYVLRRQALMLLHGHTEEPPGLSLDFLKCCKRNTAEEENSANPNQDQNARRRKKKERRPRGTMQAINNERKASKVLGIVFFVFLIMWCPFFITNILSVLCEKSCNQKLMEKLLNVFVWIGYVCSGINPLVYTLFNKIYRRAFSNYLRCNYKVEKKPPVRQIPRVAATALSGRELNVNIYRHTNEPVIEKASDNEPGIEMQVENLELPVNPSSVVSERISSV
pKi: −log10 of the molar value.
# reported pKi; entries follow

| Mol Smiles | pKi |
| --- | --- |
| O=C1c2ccccc2C(=O)N1CCCCN1CC=C(c2c[nH]c3ccc(F)cc23)CC1 | 7.40 |
| C[C@H]1Oc2c(cccc2N2CCN(CCCc3c[nH]c4ccc(F)cc34)CC2)NC1=O | 6.70 |

###

This document collects pKi values reported for UniProt:P35462.
Sequence (P35462 whole entry): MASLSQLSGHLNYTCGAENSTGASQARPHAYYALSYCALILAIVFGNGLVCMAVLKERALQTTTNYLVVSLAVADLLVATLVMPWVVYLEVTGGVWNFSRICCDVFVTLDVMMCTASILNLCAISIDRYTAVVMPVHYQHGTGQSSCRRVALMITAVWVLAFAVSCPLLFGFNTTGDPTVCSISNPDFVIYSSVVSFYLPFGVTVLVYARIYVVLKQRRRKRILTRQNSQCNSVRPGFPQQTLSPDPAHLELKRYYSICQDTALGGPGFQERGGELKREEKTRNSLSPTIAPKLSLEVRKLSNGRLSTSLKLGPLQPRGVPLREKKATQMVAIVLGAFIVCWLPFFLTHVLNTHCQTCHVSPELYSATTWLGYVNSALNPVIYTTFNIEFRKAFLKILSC
pKi: −log10 of the molar value.

| Mol Smiles | pKi |
| --- | --- |
| O=C1c2ccccc2C(=O)N1CCCCN1CC=C(c2c[nH]c3ccc(F)cc23)CC1 | 9.10 |
| C[C@H]1Oc2c(cccc2N2CCN(CCCc3c[nH]c4ccc(F)cc34)CC2)NC1=O | 9.30 |

###

pKi: −log10 of the molar value.
This document collects pKi values reported for 5-hydroxytryptamine receptor 2A (Homo sapiens).

| Mol Smiles | pKi |
| --- | --- |
| C[C@H]1Oc2c(cccc2N2CCN(CCCc3c[nH]c4ccc(F)cc34)CC2)NC1=O | 7.70 |
| O=C1c2ccccc2C(=O)N1CCCCN1CC=C(c2c[nH]c3ccc(F)cc23)CC1 | 7.00 |

###

# System: Sodium-dependent serotonin transporter (Homo sapiens, UniProt P31645)
# Sequence (P31645 whole entry): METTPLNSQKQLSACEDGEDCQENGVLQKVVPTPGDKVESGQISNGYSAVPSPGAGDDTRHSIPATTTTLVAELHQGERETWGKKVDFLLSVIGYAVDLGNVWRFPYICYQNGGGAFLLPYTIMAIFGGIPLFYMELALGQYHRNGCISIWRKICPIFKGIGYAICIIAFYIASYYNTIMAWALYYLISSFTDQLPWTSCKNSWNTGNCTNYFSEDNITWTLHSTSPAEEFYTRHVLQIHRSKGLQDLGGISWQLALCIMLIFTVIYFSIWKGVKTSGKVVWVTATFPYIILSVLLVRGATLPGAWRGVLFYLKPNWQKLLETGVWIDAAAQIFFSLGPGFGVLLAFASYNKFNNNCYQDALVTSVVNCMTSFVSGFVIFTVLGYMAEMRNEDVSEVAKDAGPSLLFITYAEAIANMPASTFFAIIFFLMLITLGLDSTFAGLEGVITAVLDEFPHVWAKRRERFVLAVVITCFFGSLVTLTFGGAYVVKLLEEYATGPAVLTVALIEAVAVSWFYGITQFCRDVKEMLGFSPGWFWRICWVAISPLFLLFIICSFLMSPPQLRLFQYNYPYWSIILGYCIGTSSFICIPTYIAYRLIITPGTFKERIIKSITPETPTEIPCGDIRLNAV
pKi: −log10 of the molar value.

| Mol Smiles | pKi |
| --- | --- |
| O=C1c2ccccc2C(=O)N1CCCCN1CC=C(c2c[nH]c3ccc(F)cc23)CC1 | 9.10 |
| C[C@H]1Oc2c(cccc2N2CCN(CCCc3c[nH]c4ccc(F)cc34)CC2)NC1=O | 9.60 |

###

# System: UniProt P50406
# Sequence (P50406 whole entry): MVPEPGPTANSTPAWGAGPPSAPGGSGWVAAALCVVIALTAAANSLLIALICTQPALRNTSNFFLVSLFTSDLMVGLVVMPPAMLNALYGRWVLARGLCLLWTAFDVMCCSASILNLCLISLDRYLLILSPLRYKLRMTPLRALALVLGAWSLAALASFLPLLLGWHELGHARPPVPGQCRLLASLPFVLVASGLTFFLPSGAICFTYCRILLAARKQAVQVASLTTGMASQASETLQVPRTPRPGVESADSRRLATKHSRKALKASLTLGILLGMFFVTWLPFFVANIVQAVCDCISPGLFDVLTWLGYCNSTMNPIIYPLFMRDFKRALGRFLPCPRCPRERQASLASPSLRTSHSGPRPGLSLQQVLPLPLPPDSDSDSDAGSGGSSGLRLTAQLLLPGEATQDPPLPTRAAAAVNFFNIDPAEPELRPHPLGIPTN

| Compound | Ki |
| --- | --- |
| O=C1c2ccccc2C(=O)N1CCCCN1CC=C(c2c[nH]c3ccc(F)cc23)CC1 | 398 nM |
| O=C1Cc2cc(CCN3CCN(c4nsc5ccccc45)CC3)c(Cl)cc2N1 [ZIPRASIDONE] | 63.1 nM |
